// data source = PubChem BioAssay (NCATS)

# test details: Drug repurposing screens with cells derived from glioblastoma tumor samples (AID 1345199); also: % is scaled to controls: 0 for no effect and ±100 for the full control effect
# test context: GBM patient neurospheres viability, ATP luminescence, 48 h; at 45.9 µM (top of the series); tumour line B
Results filed as inconclusive are left out.
For each record, write down the corresponding activity, negative = cell killing.
Quick note: give the figure in %, leave out the unit.

Task: Request the reported activity, negative = cell killing associated with CCC[C@@H]1C[C@@H](C(=O)N[C@@H]([C@H]2O[C@H](SC)[C@H](O)[C@@H](O)[C@H]2O)[C@H](C)Cl)N(C)C1
Output: 1.77

Task: Give its activity, negative = cell killing value. Item: CC(=O)Nc1ccc(OC(C)=O)cc1
Output: -2.78

Task: Consider the molecule CC(C)=CCC/C(C)=C/CC/C(C)=C/CC/C(C)=C/CC1=C(C)C(=O)c2ccccc2C1=O and give its measured activity, negative = cell killing.
Output: -29.7

Task: Give its activity, negative = cell killing value. Item: CN(CCO)CC(O)Cn1cnc2c1c(=O)n(C)c(=O)n2C (stereo unspecified) (tested in a mixture with another compound)
Output: -0.373

Task: Given the molecule CC(C)[C@@H]1CC[C@@H](C)C[C@H]1OC(=O)c1ccccc1O , what is its reported activity, negative = cell killing?
Output: -16.3

Task: Find the recorded activity, negative = cell killing belonging to O=P(O)(O)O and report it.
Output: 9.14

Task: I have this molecule here, Cc1cccc(C)c1NC(=O)C1CCCCN1C (stereo unspecified) , and I need its recorded activity, negative = cell killing.
Output: -7.34

Task: Given the molecule O=C(NNCNNC(=O)c1ccncc1)c1ccncc1 , what is its reported activity, negative = cell killing?
Output: -12

Task: Look at this molecule and give its reported activity, negative = cell killing. CC(=O)NCCCS(=O)(=O)O
Output: -1.38

Task: Requested field: activity, negative = cell killing. Item: C[C@H](NCCc1ccc(O)cc1)[C@H](O)c1ccc(O)cc1
Output: -2.5

Task: Which activity, negative = cell killing value is on record for CCc1ncnc2cc(OC)c(OC)cc12 ?
Output: -18.2
